Reference for the values: paper PMC10300102

EXPERIMENT_NOTES: In vitro monkey plasma assay
Type: in vitro ADME, cynomolgus monkey
TEST_SETTINGS: monkey, plasma (pooled, frozen), cynomolgus monkey plasma, time 30 min, n=2
Where a SMILES comes first, the peptide text is derived from it. The star is where a group is joined. Myristoyl = CCCCCCCCCCCCCC(=O)*
Listed here: items and their measured remaining at 0.5 h, 2 µM.
Output spec: scalar in %, unitless text.

compound="C[C@H](N)C(=O)NCC(=O)N[C@H]1CSSC[C@@H](C(=O)O)NC(=O)[C@H](CO)NC(=O)[C@H]([C@@H](C)O)NC(=O)[C@H](Cc2ccccc2)NC(=O)[C@H]([C@@H](C)O)NC(=O)[C@H](CCCCN)NC(=O)[C@H](Cc2c[nH]c3ccccc23)NC(=O)[C@H](Cc2ccccc2)NC(=O)[C@H](Cc2ccccc2)NC(=O)[C@H](CC(N)=O)NC(=O)[C@H](CCCCN)NC1=O [somatostatin acetate, reference compound]" observed_measurement=61.3

Let's switch to this compound now.
Name the recorded remaining at 0.5 h, 2 µM for CCCCCCCCCCCCCC(=O)N[C@H](C(=O)NCC(=O)N[C@H](C(=O)N[C@@H](CCCNC(=N)N)C(=O)N[C@@H](CC(=O)O)C(=O)N[C@@H](CCCNC(=N)N)C(=O)N[C@@H](CCCCN)C(=O)N[C@@H](CCCCN)C(=O)N[C@@H](CCCCN)C(=O)N[C@@H](CC(N)=O)C(=O)N[C@@H](CCCCN)C(=O)N[C@@H](C)C(=O)N[C@@H](CCCNC(=N)N)C(=O)N[C@@H](CO)C(=O)O)[C@@H](C)CC)[C@@H](C)O [NACE2i] (Myristoyl-TGIRDRKKKNKARS-OH) . 90.6
